All values here come from a collection of fitness landscapes (doi:10.1126/science.1257360).

B1: PhoQ; a variant is named by its letters at X, in order, P23837 (parent)
chain: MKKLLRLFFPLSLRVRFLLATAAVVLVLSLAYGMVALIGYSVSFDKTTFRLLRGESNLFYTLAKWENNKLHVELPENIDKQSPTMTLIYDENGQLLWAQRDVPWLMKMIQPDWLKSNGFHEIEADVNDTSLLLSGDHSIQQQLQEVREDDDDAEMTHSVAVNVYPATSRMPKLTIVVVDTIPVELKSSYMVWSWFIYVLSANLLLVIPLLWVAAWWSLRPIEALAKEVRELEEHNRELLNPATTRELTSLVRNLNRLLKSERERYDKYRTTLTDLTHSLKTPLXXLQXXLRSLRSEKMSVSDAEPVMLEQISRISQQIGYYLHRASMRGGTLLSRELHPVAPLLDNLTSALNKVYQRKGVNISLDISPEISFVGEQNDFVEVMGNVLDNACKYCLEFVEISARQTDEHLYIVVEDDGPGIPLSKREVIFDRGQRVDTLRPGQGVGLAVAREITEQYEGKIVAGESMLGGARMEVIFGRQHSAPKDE

variants of: B1; assay: enrichment ratio after two sorts for PhoP signalling (ratio (wild type AVST 3.29)); higher = more functional; conditions: with PhoP (E. coli)
Over roughly 140,000 sequences, “enrichment ratio after two sorts for PhoP signalling” has its median near 0; the highest 2% begin near 11. This is one part of a sample in which the highest values are shown more often than they occur.
measurement type: enrichment ratio

In the examples that follow, each entry is paired with its recorded enrichment ratio.
## Task Note enrichment ratio for the variant shown: EIRD
## Result ≤ 0.25

## Task Give enrichment ratio for PWKL
## Result ≤ 0.25

## Task Read the entry FCLM and write its reported enrichment ratio.
## Result 12.7

## Task Determine from records and report enrichment ratio for ASPV
## Result 0.706

## Task Report enrichment ratio, nothing else, for this variant: KQNP
## Result ≤ 0.25

Others:
## Task Answer with reported enrichment ratio of TCPW
## Result ≤ 0.25

## Task Dear colleague, please send me the reported enrichment ratio for EPLM when you can.
## Result ≤ 0.25

## Task Input THGH , output reported enrichment ratio.
## Result 13.1

## Task Please look at this variant and report its enrichment ratio: EKCV
## Result ≤ 0.25

## Task Return the recorded enrichment ratio value; entry: WSQP
## Result ≤ 0.25

## Task Give the value of enrichment ratio reported for the following: ALVP
## Result ≤ 0.25

## Task Return enrichment ratio (reported value) for this variant: AIWD
## Result ≤ 0.25

## Task Tell us which enrichment ratio value is on record for PWSL
## Result ≤ 0.25

## Task Query enrichment ratio for VEGH
## Result ≤ 0.25

## Task Return enrichment ratio for the following variant: IKMM
## Result ≤ 0.25
